For each record, write down the corresponding viability, T/C.
- Tested on: 252836-082-R-J2-PDC tumor spheroids, viability;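 note: spheroids exposed to agents for seven days before readout; percent of vehicle DMSO control viability so 100% = untreated growth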
- PROTOCOL_DESCRIPTION: Anticancer human tumor 252836-082-R-J2-PDC patient-derived head and neck squamous cell carcinoma cell line growth inhibition [PI3K]
- STATED_CONDITIONS: second compound 0.0316 µM; first compound 0.1 µM; hits give low values; spheroids with HUVEC and MSC

These recorded examples may help you get a feel for the data.
[
  {
    "MOLECULE": "C#Cc1c(F)ccc2cc(O)cc(-c3ncc4c(N5CC6CCC(C5)N6)nc(OCC56CCCN5CC(F)C6)nc4c3F)c12 (stereo not given) + Cc1nc(NC(=O)N2CCCC2C(N)=O)sc1-c1ccnc(C(C)(C)C(F)(F)F)c1",
    "QUANTITY_MEASURED": "viability, T/C",
    "RESULT_VALUE": "82.3%"
  },
  {
    "MOLECULE": "C=CC(=O)N1CCN(c2nc(=O)n(-c3c(C)ccnc3C(C)C)c3nc(-c4c(O)cccc4F)c(F)cc23)C(C)C1 (stereo not given) + Cc1nc(NC(=O)N2CCCC2C(N)=O)sc1-c1ccnc(C(C)(C)C(F)(F)F)c1",
    "QUANTITY_MEASURED": "viability, T/C",
    "RESULT_VALUE": "87.1%"
  },
  {
    "MOLECULE": "Cn1ncnc1[C@H]1c2n[nH]c(=O)c3cc(F)cc(c23)N[C@@H]1c1ccc(F)cc1 + COc1c(OCCCN2CCOCC2)ccc2c3n(c(=NC(=O)c4cnc(N)nc4)nc12)CCN3",
    "QUANTITY_MEASURED": "viability, T/C",
    "RESULT_VALUE": "24.4%"
  }
]

Batch request: viability, T/C for each of the following molecules.
1. CC(C)n1nc(-c2ccc3oc(N)nc3c2)c2c(N)ncnc21 + CC(Nc1ccc2c(c1)OCCn1cc(N3C(=O)OCC3C(F)F)nc1-2)C(N)=O
2. CCN1CCN(Cc2ccc(Nc3ncc(F)c(-c4cc(F)c5nc(C)n(C(C)C)c5c4)n3)nc2)CC1 + CC(Nc1ccc2c(c1)OCCn1cc(N3C(=O)OCC3C(F)F)nc1-2)C(N)=O

[reply]
1: 19.4%; 2: 74.1%
